Source: patent US20190216827A1

- runDescription: Solubility test of dutasteride and tadalafil in oils
- Format: physicochemical
- recordedConditions: oil or lipid, thermodynamic from solid; solvent Soybean oil; room temperature, stirring for 24 hours
quantityKind: solubility at 24 h (µg/mL)
One number for each entry, in µg/mL.

Query :: solubility at 24 h for CN1CC(=O)N2[C@H](c3ccc4c(c3)OCO4)c3[nH]c4ccccc4c3C[C@@H]2C1=O [tadalafil] ?
Result :: 240

====

- runDescription: Solubility test of dutasteride and tadalafil in oils
- Format: physicochemical
- recordedConditions: propylene glycol monolaurate (oil), oil or lipid, thermodynamic from solid; solvent Propylene glycol monolaurate; room temperature, stirring for 24 hours
quantityKind: solubility at 24 h
Please provide the amount together with its unit, number first.

Query :: solubility at 24 h for CN1CC(=O)N2[C@H](c3ccc4c(c3)OCO4)c3[nH]c4ccccc4c3C[C@@H]2C1=O ?
Result :: 1030 µg/mL

====

- runDescription: Solubility test of dutasteride and tadalafil in oils
- Format: physicochemical
- recordedConditions: propylene glycol monocaprylate (oil), oil or lipid, thermodynamic from solid; solvent Propylene glycol monocaprylate; room temperature, stirring for 24 hours
quantityKind: solubility at 24 h (µg/mL)
Numbers only, in µg/mL.

Query :: solubility at 24 h for CN1CC(=O)N2[C@H](c3ccc4c(c3)OCO4)c3[nH]c4ccccc4c3C[C@@H]2C1=O ?
Result :: 4090

====

- runDescription: Solubility test of dutasteride and tadalafil in oils
- Format: physicochemical
- recordedConditions: propylene glycol dicaprylate (oil), oil or lipid, thermodynamic from solid; solvent Propylene glycol dicaprylate; room temperature, stirring for 24 hours
quantityKind: solubility at 24 h (µg/mL)
Numbers only, in µg/mL.

Query :: solubility at 24 h for CN1CC(=O)N2[C@H](c3ccc4c(c3)OCO4)c3[nH]c4ccccc4c3C[C@@H]2C1=O ?
Result :: 440

====

- runDescription: Solubility test of dutasteride and tadalafil in oils
- Format: physicochemical
- recordedConditions: glycerol monooleate (oil), oil or lipid, thermodynamic from solid; solvent Glycerol monooleate; room temperature, stirring for 24 hours
quantityKind: solubility at 24 h (µg/mL)
Numbers only, in µg/mL.

Query :: solubility at 24 h for CN1CC(=O)N2[C@H](c3ccc4c(c3)OCO4)c3[nH]c4ccccc4c3C[C@@H]2C1=O [tadalafil] ?
Result :: 1110
